assayOverview: binders of probe aHhip on microarray, primary screen, stem cell growth factor project, biochemical, small-molecule microarray, fluorescence 635/667 (AID 1087);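 further: score merges spot fluorescence at 667nm with spot signal to noise ratio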
testContext: higher = more signal
Label class 1 when composite z-score is at or above 0.005; anything below gets class 0.

Reference set (6 entries):
Prompt: Does `O=C1N(Cc2ccccc2)c2ccccc2[C@@H]2OC(c3ccc(OCCCO)cc3)=N[C@]12CCS(=O)(=O)c1ccccc1` have a reported composite z-score of at least 0.005?
Response: class 0

Prompt: Does `C=C(CCCC)/C(=C/C[C@H](OC(=O)c1ccncc1)c1ccccc1OCCO)c1cnc2ccccc2c1` have a reported composite z-score of at least 0.005?
Response: class 1

Prompt: Does C=CCC(OC(C)=O)[C@@H]1[C@@H](N(Cc2cc3ccccc3o2)C(=O)c2cccc3ccccc23)c2cc(OCCCO)ccc2N1C(=O)c1ccc(-c2ccccc2)cc1 (stereo not given in full) have a reported composite z-score of at least 0.005?
Response: class 0

Prompt: Does `COC(=O)C(CC#Cc1ccc2c(c1)[C@]1(C(=O)N2)[C@H](C(=O)Nc2nc3ccccc3s2)[C@H]2C(=O)O[C@H](c3ccccc3)[C@H](c3ccccc3)N2[C@@H]1c1ccc(O)cc1)C(=O)OC` have a reported composite z-score of at least 0.005?
Response: class 0

Prompt: Does `C=C(C(=O)CC[C@@H](OC(=O)c1cccnc1)c1ccccc1OCCO)C(C)C` have a reported composite z-score of at least 0.005?
Response: class 1

Prompt: Does `NCCCCCCNC(=O)[C@@H]1C[C@@H]2C(=O)NCC(=O)N2[C@@H]1c1ccc(O)cc1` have a reported composite z-score of at least 0.005?
Response: class 0

---
Prompt: Does `CCS[C@H]1[C@@H](C(=O)O)[C@H](c2ccc(C)cc2)N(S(=O)(=O)c2ccc(C)cc2)[C@@H]1CC` have a reported composite z-score of at least 0.005?
Response: class 1

Prompt: Does `CCCC[C@@H]1C[C@H]1[C@@H](NC(=O)C(C)(C)C)c1ccc(C(F)(F)F)cc1` have a reported composite z-score of at least 0.005?
Response: class 1

Prompt: Does `CCOC(=O)C[C@H]1[C@H](OC(=O)c2cc3ccccc3oc2=O)[C@@H](NC(=O)c2ccccc2)c2cc(OCCCO)ccc2N1C(=O)c1ccc2ccccc2n1` have a reported composite z-score of at least 0.005?
Response: class 0

Prompt: Does `O=C(c1ccccc1)N1C(=O)[C@@]2(Cc3ccccc31)N=C(c1ccc(OCCCO)cc1)O[C@H]2c1ccccc1` have a reported composite z-score of at least 0.005?
Response: class 1

Prompt: Does CCC(CC)C(O)C1C=CC2C(=O)NC(=O)C2N1Nc1ccccn1 (stereo not given) have a reported composite z-score of at least 0.005?
Response: class 1

Prompt: Does `C[N+](C)(C)CCCCNC(=O)[C@H]1C[C@H]2C(=O)N3CCC[C@H]3C(=O)N2[C@H]1c1cccc(OCCO)c1` have a reported composite z-score of at least 0.005?
Response: class 1

Prompt: Does `C=CC[C@@]12N=C(c3ccc(OCCCO)cc3)O[C@@H]1c1ccccc1N(C)C2=O` have a reported composite z-score of at least 0.005?
Response: class 1

Prompt: Does `O=C1N[C@@H](Cc2ccccc2)C(=O)N2[C@@H]1C[C@@H](C(=O)O)[C@H]2c1cccc(OCCO)c1` have a reported composite z-score of at least 0.005?
Response: class 0

Prompt: Does `C=CCNC(=O)[C@@H]1[C@H]2C(=O)O[C@H](c3ccccc3)[C@H](c3ccccc3)N2[C@H](c2ccccc2OCCO)[C@@]12C(=O)N(C(=O)OCCOC)c1ccccc12` have a reported composite z-score of at least 0.005?
Response: class 1
